- measurement-description: in vitro
- Assay type: cell-based
- experimental-context: mouse
quantity-kind: IC50 at 24 h (µM)
Response body: numeric value in µM, unit text excluded.

molecule | IC50 at 24 h [µM]
Oc1ccccc1/C=N/CCCCCCCCNc1c2c(nc3ccccc13)CCCC2 [10c] | 5.87
COc1cc(F)c(F)cc1C(=O)NCCCCCCNc1c2c(nc3ccccc13)CCCC2 [8b] | 3.95
O=C(NCCCCCCNc1c2c(nc3ccccc13)CCCC2)c1cc(F)c(F)cc1O [7b] | 15.2
O=C(NCCCCCCNc1c2c(nc3ccccc13)CCCC2)c1ccccc1O [5b] | 4.89
Nc1c2c(nc3ccccc13)CCCC2 [Tacrine, reference compound] | 3.78

Turning now to a further molecule:
## Task Which measured IC50 at 24 h value corresponds to COc1ccccc1C(=O)NCCCCCCCCNc1c2c(nc3ccccc13)CCCC2 [6c] ?
## Result 3.81
